This collection of values is drawn from patent US5668134A.

assay: Solubility of lomefloxacin HCl in urine; format: physicochemical; settings: human, pH 5.2
Structures can show the parent of a compound that is named as a salt.
measureName: solubility (µg/mL)
Numeric answer only, unit µg/mL assumed.

Give its solubility value. Item: CCn1cc(C(=O)O)c(=O)c2cc(F)c(N3CCNC(C)C3)c(F)c21 (racemic) [lomefloxacin HCl]
7800

====

assay: Solubility of lomefloxacin HCl in urine; format: physicochemical; settings: human, pH 6.5
Structures can show the parent of a compound that is named as a salt.
measureName: solubility
Field: value (include unit after the number)

Give its solubility value. Item: CCn1cc(C(=O)O)c(=O)c2cc(F)c(N3CCNC(C)C3)c(F)c21 (racemic) [lomefloxacin HCl]
2400 µg/mL
